Reference source for all entries: ChEMBL document CHEMBL2413072

Overview of recorded growth at 100 µM for various molecules
- Test system: NCI-H460
- protocol_details: Growth inhibition of human NCI-H460 cells assessed as cell growth at 10^-4 M by sulforhodamine B assay
- Type: functional
- test_conditions: read-out: Activity
measurement_label: growth at 100 µM

| smiles_structure | measurement_label | test_value |
| --- | --- | --- |
| CC1(C)C[C@@H](O)[C@]2(C(=O)O)CC[C@]3(C)C(=CC[C@@H]4[C@@]5(C)C/C(=C\C=C\c6ccccc6)C(=O)C(C)(C)[C@@H]5CC[C@]43C)[C@@H]2C1 | growth at 100 µM | -70% |
| C/C=C(/C)C(=O)O[C@@H]1CC(C)(C)C[C@H]2C3=CC[C@@H]4[C@@]5(C)CCC(=O)C(C)(C)[C@@H]5CC[C@@]4(C)[C@]3(C)CC[C@@]12C(=O)O | growth at 100 µM | 8% |
| C/C=C(/C)C(=O)O[C@@H]1CC(C)(C)C[C@H]2C3=CC[C@@H]4[C@@]5(C)CC[C@H](O)C(C)(C)[C@@H]5CC[C@@]4(C)[C@]3(C)CC[C@@]12C(=O)O | growth at 100 µM | -37% |
| CC(C)=CC(=O)O[C@@H]1CC(C)(C)C[C@H]2C3=CC[C@@H]4[C@@]5(C)CC[C@H](O)C(C)(C)[C@@H]5CC[C@@]4(C)[C@]3(C)CC[C@@]12C(=O)O | growth at 100 µM | -4% |
| CC(C)=CC(=O)O[C@@H]1CC(C)(C)C[C@H]2C3=CC[C@@H]4[C@@]5(C)CCC(=O)C(C)(C)[C@@H]5CC[C@@]4(C)[C@]3(C)CC[C@@]12C(=O)O | growth at 100 µM | -54% |

###

- Tested on: NCI-H522
- protocol_details: Growth inhibition of human NCI-H522 cells assessed as growth inhibition at 10 uM by sulforhodamine B assay
- Format: functional
- test_conditions: read-out: GI
Examples of compounds with documented inhibition of growth at 10 µM follow.

| smiles_structure | inhibition of growth at 10 µM |
| --- | --- |
| CC1(C)C[C@@H](O)[C@]2(C(=O)O)CC[C@]3(C)C(=CC[C@@H]4[C@@]5(C)CCC(=O)C(C)(C)[C@@H]5CC[C@]43C)[C@@H]2C1 | 19.1% |
| CC(C)=CC(=O)O[C@@H]1CC(C)(C)C[C@H]2C3=CC[C@@H]4[C@@]5(C)CCC(=O)C(C)(C)[C@@H]5CC[C@@]4(C)[C@]3(C)CC[C@@]12C(=O)O | 42.7% |
| C/C=C(/C)C(=O)O[C@@H]1CC(C)(C)C[C@H]2C3=CC[C@@H]4[C@@]5(C)CCC(=O)C(C)(C)[C@@H]5CC[C@@]4(C)[C@]3(C)CC[C@@]12C(=O)O | 33.9% |

###

- Test system: CCRF-CEM
- protocol_details: Growth inhibition of human CCRF-CEM cells assessed as cell growth at 10^-6 M by sulforhodamine B assay
- Format: functional
- test_conditions: read-out: Activity
Flag rule - growth at 1 µM less than 90% flags yes (1); the remaining entries get no (0).

| smiles_structure | assigned_label |
| --- | --- |
| CC(C)=CC(=O)O[C@@H]1CC(C)(C)C[C@H]2C3=CC[C@@H]4[C@@]5(C)CCC(=O)C(C)(C)[C@@H]5CC[C@@]4(C)[C@]3(C)CC[C@@]12C(=O)O | yes (1) |
| CC1(C)C[C@@H](O)[C@]2(C(=O)O)CC[C@]3(C)C(=CC[C@@H]4[C@@]5(C)C/C(=C\C=C\c6ccccc6)C(=O)C(C)(C)[C@@H]5CC[C@]43C)[C@@H]2C1 | no (0) |
| CC(C)=CC(=O)O[C@@H]1CC(C)(C)C[C@H]2C3=CC[C@@H]4[C@@]5(C)CC[C@H](O)C(C)(C)[C@@H]5CC[C@@]4(C)[C@]3(C)CC[C@@]12C(=O)O | yes (1) |

###

- Tested on: HOP-62
- protocol_details: Growth inhibition of human HOP62 cells by sulforhodamine B assay
- Format: functional
- test_conditions: read-out: pLC50 (converted)
measurement_label: LC50 (concentration killing 50% of cells) (µM)

| molecule | target_under_test | bound_sign | test_value |
| --- | --- | --- | --- |
| CC(C)=CC(=O)O[C@@H]1CC(C)(C)C[C@H]2C3=CC[C@@H]4[C@@]5(C)CC[C@H](O)C(C)(C)[C@@H]5CC[C@@]4(C)[C@]3(C)CC[C@@]12C(=O)O [Reduced Lantadene B] | HOP-62 | = | 79.4 |
| CC(C)=CC(=O)O[C@@H]1CC(C)(C)C[C@H]2C3=CC[C@@H]4[C@@]5(C)CCC(=O)C(C)(C)[C@@H]5CC[C@@]4(C)[C@]3(C)CC[C@@]12C(=O)O | HOP-62 | > | 100 |
| CC1(C)C[C@@H](O)[C@]2(C(=O)O)CC[C@]3(C)C(=CC[C@@H]4[C@@]5(C)C/C(=C\C=C\c6ccccc6)C(=O)C(C)(C)[C@@H]5CC[C@]43C)[C@@H]2C1 | HOP-62 | = | 83.2 |
| C/C=C(/C)C(=O)O[C@@H]1CC(C)(C)C[C@H]2C3=CC[C@@H]4[C@@]5(C)CCC(=O)C(C)(C)[C@@H]5CC[C@@]4(C)[C@]3(C)CC[C@@]12C(=O)O [LANTADENE A] | HOP-62 | > | 100 |

###

Some molecules, each annotated with its measured growth at 100 µM.
- Test system: MDA-MB-468
- protocol_details: Growth inhibition of human MDA-MB-468 cells assessed as cell growth at 10^-4 M by sulforhodamine B assay
- Assay type: functional
- test_conditions: read-out: Activity

| smiles_structure | unit_abbreviation | growth at 100 µM |
| --- | --- | --- |
| CC1(C)C[C@@H](O)[C@]2(C(=O)O)CC[C@]3(C)C(=CC[C@@H]4[C@@]5(C)C/C(=C\C=C\c6ccccc6)C(=O)C(C)(C)[C@@H]5CC[C@]43C)[C@@H]2C1 | % | -95 |
| CC(C)=CC(=O)O[C@@H]1CC(C)(C)C[C@H]2C3=CC[C@@H]4[C@@]5(C)CCC(=O)C(C)(C)[C@@H]5CC[C@@]4(C)[C@]3(C)CC[C@@]12C(=O)O | % | -37 |
| C/C=C(/C)C(=O)O[C@@H]1CC(C)(C)C[C@H]2C3=CC[C@@H]4[C@@]5(C)CCC(=O)C(C)(C)[C@@H]5CC[C@@]4(C)[C@]3(C)CC[C@@]12C(=O)O | % | 1 |
| CC(C)=CC(=O)O[C@@H]1CC(C)(C)C[C@H]2C3=CC[C@@H]4[C@@]5(C)CC[C@H](O)C(C)(C)[C@@H]5CC[C@@]4(C)[C@]3(C)CC[C@@]12C(=O)O | % | -77 |
| C/C=C(/C)C(=O)O[C@@H]1CC(C)(C)C[C@H]2C3=CC[C@@H]4[C@@]5(C)CC[C@H](O)C(C)(C)[C@@H]5CC[C@@]4(C)[C@]3(C)CC[C@@]12C(=O)O | % | -86 |

###

- System: UACC-257
- protocol_details: Growth inhibition of human UACC257 cells assessed as cell growth at 10^-4 M by sulforhodamine B assay
- Assay type: functional
- test_conditions: read-out: Activity
measurement_label: growth at 100 µM (%)

| smiles_structure | measurement_label | unit_abbreviation | test_value |
| --- | --- | --- | --- |
| C/C=C(/C)C(=O)O[C@@H]1CC(C)(C)C[C@H]2C3=CC[C@@H]4[C@@]5(C)CCC(=O)C(C)(C)[C@@H]5CC[C@@]4(C)[C@]3(C)CC[C@@]12C(=O)O | growth at 100 µM | % | 21 |
| CC(C)=CC(=O)O[C@@H]1CC(C)(C)C[C@H]2C3=CC[C@@H]4[C@@]5(C)CCC(=O)C(C)(C)[C@@H]5CC[C@@]4(C)[C@]3(C)CC[C@@]12C(=O)O | growth at 100 µM | % | -15 |
| C/C=C(/C)C(=O)O[C@@H]1CC(C)(C)C[C@H]2C3=CC[C@@H]4[C@@]5(C)CC[C@H](O)C(C)(C)[C@@H]5CC[C@@]4(C)[C@]3(C)CC[C@@]12C(=O)O | growth at 100 µM | % | -69 |
| CC1(C)C[C@@H](O)[C@]2(C(=O)O)CC[C@]3(C)C(=CC[C@@H]4[C@@]5(C)C/C(=C\C=C\c6ccccc6)C(=O)C(C)(C)[C@@H]5CC[C@]43C)[C@@H]2C1 | growth at 100 µM | % | -88 |
| CC(C)=CC(=O)O[C@@H]1CC(C)(C)C[C@H]2C3=CC[C@@H]4[C@@]5(C)CC[C@H](O)C(C)(C)[C@@H]5CC[C@@]4(C)[C@]3(C)CC[C@@]12C(=O)O | growth at 100 µM | % | -34 |
